Molecular target: T1, wildtype feline IL-31 protein (Feline_IL31_wildtype) (feline)
T1 chain: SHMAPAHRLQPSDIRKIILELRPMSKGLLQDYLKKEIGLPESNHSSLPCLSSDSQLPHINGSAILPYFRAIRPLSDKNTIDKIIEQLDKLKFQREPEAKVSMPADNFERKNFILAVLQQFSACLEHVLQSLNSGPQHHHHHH
Experiment: cell-based or functional assay
Response key: 1 means % Inhibition Relative to Parent (pSTAT, FCWF-4 cells) >= 30%; -1 means % Inhibition Relative to Parent (pSTAT, FCWF-4 cells) < 30%.

{"columns": ["Binder", "Class"],
 "data": [
  ["A10 (antibody, V domains shown) VH: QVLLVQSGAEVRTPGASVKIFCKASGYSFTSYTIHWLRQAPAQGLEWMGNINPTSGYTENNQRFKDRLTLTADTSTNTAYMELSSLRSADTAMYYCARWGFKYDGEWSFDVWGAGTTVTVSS VL: EIQMTQSPSSLSASPGDRVTITCRASQGIAIWLSWYQQKPGNIPKVLINKASNLHIGVPSRFSGSGSGTDFTLTISSLEPEDAATYYCLQSQTYPLTFGGGTKLEIK", -1],
  ["A26 (antibody, V domains shown) VH: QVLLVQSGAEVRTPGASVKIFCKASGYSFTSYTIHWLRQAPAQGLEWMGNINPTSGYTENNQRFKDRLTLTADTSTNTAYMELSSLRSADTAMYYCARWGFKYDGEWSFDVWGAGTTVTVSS VL: EIQMTQSPSSLSASPGDRVTITCRASQGISIWLSWYQQKPGNIPKVLINKASNLHIGVPSRFSGSGSGTDFTLTISSLEPEDAATYYCLQSQTYALTFGGGTKLEIK", 1],
  ["A18 (antibody, V domains shown) VH: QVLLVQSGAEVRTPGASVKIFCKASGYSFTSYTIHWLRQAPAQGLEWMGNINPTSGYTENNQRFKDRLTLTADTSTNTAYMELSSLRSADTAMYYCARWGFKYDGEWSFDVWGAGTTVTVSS VL: EIQMTQSPSSLSASPGDRVTITCRASQGISIWLSWYQQKPGNIPKVLINKASNAHIGVPSRFSGSGSGTDFTLTISSLEPEDAATYYCLQSQTYPLTFGGGTKLEIK", 1],
  ["A25 (antibody, V domains shown) VH: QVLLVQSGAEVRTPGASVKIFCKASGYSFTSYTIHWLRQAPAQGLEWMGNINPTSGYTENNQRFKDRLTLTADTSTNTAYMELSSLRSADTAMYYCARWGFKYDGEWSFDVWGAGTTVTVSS VL: EIQMTQSPSSLSASPGDRVTITCRASQGISIWLSWYQQKPGNIPKVLINKASNLHIGVPSRFSGSGSGTDFTLTISSLEPEDAATYYCLQSQTAPLTFGGGTKLEIK", -1],
  ["A12 (antibody, V domains shown) VH: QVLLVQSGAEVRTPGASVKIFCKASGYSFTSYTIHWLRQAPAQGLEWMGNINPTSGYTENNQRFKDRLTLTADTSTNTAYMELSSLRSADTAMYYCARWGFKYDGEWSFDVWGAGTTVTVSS VL: EIQMTQSPSSLSASPGDRVTITCRASQGISAWLSWYQQKPGNIPKVLINKASNLHIGVPSRFSGSGSGTDFTLTISSLEPEDAATYYCLQSQTYPLTFGGGTKLEIK", -1]
]}
